Tested on: F380Y/beta1
Assay: modulators of BK channel variants, profiling panel, selectivity assay, cell-based, U2OS BacMam, thallium flux, beta subunits (AID 1259406);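 also: initial slope of Thallos dye fluorescence rise after thallium is added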
Details: at 30 µM
Bucketed by reported log fold change Tl+ flux, buckets being small value = under -0.007, mid value = from -0.007 up to 0.04, large value = 0.04 and over

Qu. Class label required: CC(C)(C)NCC(O)COc1cccc2c1C[C@H](O)[C@H](O)C2 (some centres undefined)
Ans. mid value

###

Assay: stimulators of nuclear beta-catenin in C2C12, primary screen, imaging, WNT3A-conditioned medium, mouse C2C12, NPC library (AID 1117326); also: reference of the scale not given here
Conditions: at 10 µM
Active and inactive are the calls of the source. Cut-off read from the data, not from the text of the source: active = nuclear beta-catenin stimulation mostly above about 4.2% (no sharp cut-off); inactive = mostly below about 10%.
Entry note: the call must match one of active, inactive

Example results:
{"columns": ["compound.structure.string", "category.label"],
 "data": [
  ["CCOC(=O)c1ccc(O)c(O)c1", "inactive"],
  ["Oc1ccc(CCNCCCCCCNCCc2ccccc2)cc1O", "inactive"],
  ["C[C@@]12CCC[C@H]1[C@@H]1CC[C@H]3C[C@@H](O)CC[C@]3(C)[C@H]1CC2", "inactive"],
  ["CCCCCCCC/C=C/C(=O)O", "inactive"]
]}

Qu. Which outcome did this test record for the molecule CCCSc1ccc2nc(NC(=O)OC)[nH]c2c1 ?
Ans. active

Qu. What is the recorded call for this molecule in the test? CCOC(=O)COc1ccc2c(C)c(CCN(CC)CC)c(=O)oc2c1Cl
Ans. inactive
